# target.or.test.system: Phosphatidylinositol 4,5-bisphosphate 3-kinase catalytic subunit alpha isoform (Homo sapiens, UniProt P42336)
# Sequence (P42336 whole entry, canonical isoform): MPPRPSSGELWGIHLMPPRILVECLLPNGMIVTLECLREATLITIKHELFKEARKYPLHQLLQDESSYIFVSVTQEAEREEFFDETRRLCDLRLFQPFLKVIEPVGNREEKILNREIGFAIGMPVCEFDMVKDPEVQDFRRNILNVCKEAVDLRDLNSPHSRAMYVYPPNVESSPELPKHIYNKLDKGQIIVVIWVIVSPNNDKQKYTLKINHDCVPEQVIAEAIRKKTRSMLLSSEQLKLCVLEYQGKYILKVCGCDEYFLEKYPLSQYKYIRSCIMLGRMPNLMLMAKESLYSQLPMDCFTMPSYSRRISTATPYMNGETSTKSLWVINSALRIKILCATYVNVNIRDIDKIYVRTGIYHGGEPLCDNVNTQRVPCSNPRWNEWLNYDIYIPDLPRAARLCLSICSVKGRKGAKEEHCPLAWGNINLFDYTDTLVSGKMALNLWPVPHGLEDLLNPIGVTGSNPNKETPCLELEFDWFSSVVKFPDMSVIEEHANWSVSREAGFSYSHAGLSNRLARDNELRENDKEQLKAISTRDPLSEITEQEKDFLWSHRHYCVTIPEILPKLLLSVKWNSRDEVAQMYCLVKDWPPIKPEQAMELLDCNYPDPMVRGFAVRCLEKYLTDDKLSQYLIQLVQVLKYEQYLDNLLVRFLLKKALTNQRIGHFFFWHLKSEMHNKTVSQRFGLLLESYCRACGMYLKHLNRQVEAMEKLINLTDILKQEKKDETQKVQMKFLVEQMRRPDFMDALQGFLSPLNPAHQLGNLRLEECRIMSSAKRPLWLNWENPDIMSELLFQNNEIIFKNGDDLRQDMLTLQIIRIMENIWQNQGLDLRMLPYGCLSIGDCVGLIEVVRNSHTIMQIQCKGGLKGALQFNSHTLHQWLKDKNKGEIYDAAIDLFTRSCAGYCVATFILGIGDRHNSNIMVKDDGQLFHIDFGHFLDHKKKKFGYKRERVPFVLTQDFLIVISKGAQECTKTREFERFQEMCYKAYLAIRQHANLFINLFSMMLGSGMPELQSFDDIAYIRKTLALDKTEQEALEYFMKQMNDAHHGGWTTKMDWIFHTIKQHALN
measure.name: IC50 (nM)

Answered cases to consult:
INSERT INTO results (compound, measure_name, numeric_result) VALUES
  ('CNC(=O)NC1CCN(Cc2cc3nc(-c4cccc5[nH]ccc45)nc(N4CCOCC4)c3s2)CC1', 'IC50', 3980),
  ('COCC(=O)N(C)C1CCN(Cc2cc3nc(-c4cccc5[nH]ccc45)nc(N4CCOCC4)c3s2)CC1', 'IC50', 10000),
  ('CS(=O)(=O)NC1CCN(Cc2cc3nc(-c4cccc5[nH]ccc45)nc(N4CCOCC4)c3s2)C1 (racemic)', 'IC50', 1580),
  ('CC(=O)N(C)[C@H]1CCN(Cc2cc3nc(-c4cnc(N)nc4)nc(N4CCOCC4)c3s2)C1', 'IC50', 20),
  ('CNC(=O)N(C)C1CCCN(Cc2cc3nc(-c4cnc(N)nc4)nc(N4CCOCC4)c3s2)C1 (racemic)', 'IC50', 79.4);

a: COCC(=O)N(C)C1CCN(Cc2cc3nc(-c4cccc5[nH]ccc45)nc(N4CCOCC4)c3s2)C1 (racemic)
b: CNC(=O)NC1CCCN(Cc2cc3nc(-c4cccc5[nH]ncc45)nc(N4CCOCC4)c3s2)C1 (racemic)
Prompt: Looking only at measured IC50, which entry is lower, a or b ? In your reply, give the label of the chosen option.
Response: b

a: CN(C1CCN(Cc2cc3nc(-c4cccc5[nH]ncc45)nc(N4CCOCC4)c3s2)C1)S(C)(=O)=O (racemic)
b: CC(=O)N(C)[C@@H]1CCN(Cc2cc3nc(-c4cnc(N)nc4)nc(N4CCOCC4)c3s2)C1
c: CC(=O)N[C@H]1CCN(Cc2cc3nc(-c4cnc(N)nc4)nc(N4CCOCC4)c3s2)C1
d: CS(=O)(=O)NC1CCN(Cc2cc3nc(-c4cnc(N)nc4)nc(N4CCOCC4)c3s2)C1 (racemic)
e: CN(C1CCN(Cc2cc3nc(-c4cccc5[nH]ccc45)nc(N4CCOCC4)c3s2)C1)S(C)(=O)=O (racemic)
Prompt: Put the items in order so that reported IC50 rises from first to last. In plain terms: list the labels in the order you were asked to.
Response: d, b, a, c, e
(d: 10 nM, b: 31.6 nM, a: 126 nM, c: 200 nM, e: 631 nM)
